System: BXF T24
Assay: Combination study, 3D clonogenic assay, 5x5 matrix, Bliss independence
Type: cell-based, human
Conditions: Homo sapiens; BXF T24, monotherapy controls of the 5x5 combination matrix; read-out: IC50, colony formation, single agent
pIC50: −log10 of the molar value.
measured.parameter: pIC50

compound="COc1ccc(-c2ccc3cc(C(=O)O)ccc3c2)cc1C12CC3CC(CC(C3)C1)C2 [Adapalene]" target="BXF T24" observed_value=5.46

###

Tested on: 5 human tumor cell lines of bladder cancer
Assay: In vitro 3D clonogenic assay, mean over the panel
Type: cell-based
Details: colony formation, read-out: mean absolute IC50 value
pIC50: −log10 of the molar value.
measured.parameter: pIC50

compound="N.N.[Cl][Pt][Cl] [Cisplatin, cisplatin]" observed_value=5.00
